// provenance: ChEMBL document CHEMBL3112430

Here the recorded GI50 is given for each entry.
# ASSAY REMARKS: Growth inhibition of human Bel7402 cells by MTT assay
# Format: functional
# EXPERIMENTAL PARAMETERS: Bel-7402
Give the value in nM but do not write nM after it.

Some entries whose results are on file:
SMILES STR	UNIT OF MEASURE	RESULT
CC(=O)O[C@H]1C(=O)[C@@]2(C)[C@H]([C@H](OC(=O)c3ccccc3)[C@]3(O)C[C@H](OC(=O)[C@H](O)[C@@H](NC(=O)c4ccccc4)c4ccccc4)C(C)=C1C3(C)C)[C@]1(OC(C)=O)CO[C@@H]1C[C@@H]2O	nM	1.79
COCCO[C@H]1C(=O)[C@]2(C)[C@@H](OCCOC)C[C@H]3OC[C@@]3(OC(C)=O)[C@H]2[C@H](OC(=O)c2ccccc2)[C@]2(O)C[C@H](OC(=O)[C@H](O)[C@@H](NC(=O)OC(C)(C)C)c3ccccc3)C(C)=C1C2(C)C	nM	57.3
CCOCCO[C@H]1C(=O)[C@]2(C)[C@@H](OCCOCC)C[C@H]3OC[C@@]3(OC(C)=O)[C@H]2[C@H](OC(=O)c2ccccc2)[C@]2(O)C[C@H](OC(=O)[C@H](O)[C@@H](NC(=O)OC(C)(C)C)c3ccccc3)C(C)=C1C2(C)C	nM	1.56
CC(=O)O[C@@]12CO[C@@H]1C[C@H](OCCO)[C@@]1(C)C(=O)[C@H](OCCO)C3=C(C)[C@@H](OC(=O)[C@H](O)[C@@H](NC(=O)OC(C)(C)C)c4ccccc4)C[C@@](O)([C@@H](OC(=O)c4ccccc4)[C@H]21)C3(C)C	nM	56

Exam item: Return reported GI50; argument: COCO[C@H]1C(=O)[C@]2(C)[C@@H](OCOC)C[C@H]3OC[C@@]3(OC(C)=O)[C@H]2[C@H](OC(=O)c2ccccc2)[C@]2(O)C[C@H](OC(=O)[C@H](O)[C@@H](NC(=O)OC(C)(C)C)c3ccccc3)C(C)=C1C2(C)C
Marked response: 661

Exam item: Return reported GI50; argument: CC(=O)O[C@@]12CO[C@@H]1C[C@H](OC(=O)C(C)(CO)CO)[C@@]1(C)C(=O)[C@H](OC(=O)C(C)(CO)CO)C3=C(C)[C@@H](OC(=O)[C@H](O)[C@@H](NC(=O)OC(C)(C)C)c4ccccc4)C[C@@](O)([C@@H](OC(=O)c4ccccc4)[C@H]21)C3(C)C
Marked response: 11.9

###

# ASSAY REMARKS: Growth inhibition of human BGC823 cells by MTT assay
# Assay type: functional
# EXPERIMENTAL PARAMETERS: BGC-823
Here the recorded log10 GI50 is given for each entry.
A value of 2 here means GI50 of 100 in µM, since values are log10.

Some entries whose results are on file:
COMPOUND	ENDPOINT	RESULT
COCCO[C@H]1C(=O)[C@]2(C)[C@@H](OCCOC)C[C@H]3OC[C@@]3(OC(C)=O)[C@H]2[C@H](OC(=O)c2ccccc2)[C@]2(O)C[C@H](OC(=O)[C@H](O)[C@@H](NC(=O)OC(C)(C)C)c3ccccc3)C(C)=C1C2(C)C	log10 GI50	-2.70
CCOCCO[C@H]1C(=O)[C@]2(C)[C@@H](OCCOCC)C[C@H]3OC[C@@]3(OC(C)=O)[C@H]2[C@H](OC(=O)c2ccccc2)[C@]2(O)C[C@H](OC(=O)[C@H](O)[C@@H](NC(=O)OC(C)(C)C)c3ccccc3)C(C)=C1C2(C)C	log10 GI50	-0.09
CC(=O)O[C@@]12CO[C@@H]1C[C@H](OCCO)[C@@]1(C)C(=O)[C@H](OCCO)C3=C(C)[C@@H](OC(=O)[C@H](O)[C@@H](NC(=O)OC(C)(C)C)c4ccccc4)C[C@@](O)([C@@H](OC(=O)c4ccccc4)[C@H]21)C3(C)C	log10 GI50	-0.89
CC(=O)O[C@H]1C(=O)[C@@]2(C)[C@H]([C@H](OC(=O)c3ccccc3)[C@]3(O)C[C@H](OC(=O)[C@H](O)[C@@H](NC(=O)c4ccccc4)c4ccccc4)C(C)=C1C3(C)C)[C@]1(OC(C)=O)CO[C@@H]1C[C@@H]2O [PACLITAXEL]	log10 GI50	-2.44
COCO[C@H]1C(=O)[C@]2(C)[C@@H](OCOC)C[C@H]3OC[C@@]3(OC(C)=O)[C@H]2[C@H](OC(=O)c2ccccc2)[C@]2(O)C[C@H](OC(=O)[C@H](O)[C@@H](NC(=O)OC(C)(C)C)c3ccccc3)C(C)=C1C2(C)C	log10 GI50	-1.09
CC(=O)O[C@@]12CO[C@@H]1C[C@H](OC(=O)C(C)(CO)CO)[C@@]1(C)C(=O)[C@H](OC(=O)C(C)(CO)CO)C3=C(C)[C@@H](OC(=O)[C@H](O)[C@@H](NC(=O)OC(C)(C)C)c4ccccc4)C[C@@](O)([C@@H](OC(=O)c4ccccc4)[C@H]21)C3(C)C	log10 GI50	-0.01

Now for another entry.
Exam item: Return reported log10 GI50; argument: CO[C@H]1C(=O)[C@]2(C)[C@@H](OC)C[C@H]3OC[C@@]3(OC(C)=O)[C@H]2[C@H](OC(=O)c2ccccc2)[C@]2(O)C[C@H](OC(=O)[C@H](O)[C@@H](NC(=O)OC(C)(C)C)c3ccccc3)C(C)=C1C2(C)C [CABAZITAXEL]
Marked response: -0.33

###

# ASSAY REMARKS: Growth inhibition of human U937 cells by MTT assay
# Format: functional
# EXPERIMENTAL PARAMETERS: U-937
ENDPOINT: log10 GI50 (log10 of the value in nM)
A value of 2 here means GI50 of 100 in nM, since values are log10.

SMILES STR	log10 GI50
CCOCCO[C@H]1C(=O)[C@]2(C)[C@@H](OCCOCC)C[C@H]3OC[C@@]3(OC(C)=O)[C@H]2[C@H](OC(=O)c2ccccc2)[C@]2(O)C[C@H](OC(=O)[C@H](O)[C@@H](NC(=O)OC(C)(C)C)c3ccccc3)C(C)=C1C2(C)C	0.29
COCO[C@H]1C(=O)[C@]2(C)[C@@H](OCOC)C[C@H]3OC[C@@]3(OC(C)=O)[C@H]2[C@H](OC(=O)c2ccccc2)[C@]2(O)C[C@H](OC(=O)[C@H](O)[C@@H](NC(=O)OC(C)(C)C)c3ccccc3)C(C)=C1C2(C)C	0.79
CO[C@H]1C(=O)[C@]2(C)[C@@H](OC)C[C@H]3OC[C@@]3(OC(C)=O)[C@H]2[C@H](OC(=O)c2ccccc2)[C@]2(O)C[C@H](OC(=O)[C@H](O)[C@@H](NC(=O)OC(C)(C)C)c3ccccc3)C(C)=C1C2(C)C	-0.27
CC(=O)O[C@H]1C(=O)[C@@]2(C)[C@H]([C@H](OC(=O)c3ccccc3)[C@]3(O)C[C@H](OC(=O)[C@H](O)[C@@H](NC(=O)c4ccccc4)c4ccccc4)C(C)=C1C3(C)C)[C@]1(OC(C)=O)CO[C@@H]1C[C@@H]2O	0.38
CC(=O)O[C@@]12CO[C@@H]1C[C@H](OC(=O)C(C)(CO)CO)[C@@]1(C)C(=O)[C@H](OC(=O)C(C)(CO)CO)C3=C(C)[C@@H](OC(=O)[C@H](O)[C@@H](NC(=O)OC(C)(C)C)c4ccccc4)C[C@@](O)([C@@H](OC(=O)c4ccccc4)[C@H]21)C3(C)C	2.30
CC(=O)O[C@@]12CO[C@@H]1C[C@H](OCCO)[C@@]1(C)C(=O)[C@H](OCCO)C3=C(C)[C@@H](OC(=O)[C@H](O)[C@@H](NC(=O)OC(C)(C)C)c4ccccc4)C[C@@](O)([C@@H](OC(=O)c4ccccc4)[C@H]21)C3(C)C	0.87

Now for another entry.
Exam item: Return reported log10 GI50; argument: COCCO[C@H]1C(=O)[C@]2(C)[C@@H](OCCOC)C[C@H]3OC[C@@]3(OC(C)=O)[C@H]2[C@H](OC(=O)c2ccccc2)[C@]2(O)C[C@H](OC(=O)[C@H](O)[C@@H](NC(=O)OC(C)(C)C)c3ccccc3)C(C)=C1C2(C)C
Marked response: 1.59

###

# ASSAY REMARKS: Growth inhibition of human PANC1 cells by MTT assay
# Format: functional
# EXPERIMENTAL PARAMETERS: PANC-1
ENDPOINT: GI50
# output: numeric value plus its unit

Some entries whose results are on file:
SMILES STR	GI50
COCO[C@H]1C(=O)[C@]2(C)[C@@H](OCOC)C[C@H]3OC[C@@]3(OC(C)=O)[C@H]2[C@H](OC(=O)c2ccccc2)[C@]2(O)C[C@H](OC(=O)[C@H](O)[C@@H](NC(=O)OC(C)(C)C)c3ccccc3)C(C)=C1C2(C)C	1.89 nM
CC(=O)O[C@H]1C(=O)[C@@]2(C)[C@H]([C@H](OC(=O)c3ccccc3)[C@]3(O)C[C@H](OC(=O)[C@H](O)[C@@H](NC(=O)c4ccccc4)c4ccccc4)C(C)=C1C3(C)C)[C@]1(OC(C)=O)CO[C@@H]1C[C@@H]2O	2.41 nM

Now for another entry.
Exam item: Return reported GI50; argument: CC(=O)O[C@@]12CO[C@@H]1C[C@H](OCCO)[C@@]1(C)C(=O)[C@H](OCCO)C3=C(C)[C@@H](OC(=O)[C@H](O)[C@@H](NC(=O)OC(C)(C)C)c4ccccc4)C[C@@](O)([C@@H](OC(=O)c4ccccc4)[C@H]21)C3(C)C
Marked response: 296 nM
